Values compiled from PubChem BioAssay (NCATS).

# Experiment notes: Cellular Toxicity (caspase-3) Renal Proximal Tubule (AID 667);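 also: cells exposed to compound for 16 hours at 37 °C before detection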;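 as to caspase-3 activation: 0% = DMSO basal and 100% = 10 µM staurosporine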
# Recorded conditions: renal proximal tubule cells, primary cells freshly taken from rat; caspase-3 activation; series mostly up to 91.7 µM
Activity calls are given as the source filed them. Calls follow the shape of the dose curve; as a rule, active = well fitted activation curve with a large enough effect; inconclusive = small, poorly fitted or top-dose-only effect, or effect the other way; inactive = flat fitted curve, though single readings scatter.
Please reply with one of these outcomes: active, inactive

Solved cases below.
INSERT INTO assay_data (compound, class_label) VALUES
  ('CCC1CO1 (stereo not given)', 'inactive'),
  ('CC1=C(/C=C/C(C)=C/C=C/C(C)=C\C=O)C(C)(C)CCC1', 'active'),
  ('C=Cc1ccccc1C=C', 'inactive'),
  ('ClC/C=C/CCl', 'inactive'),
  ('O=Nc1ccc(NO)cc1', 'inactive');

// query Hey, what did the test say about "Nc1cc([N+](=O)[O-])ccc1C(=O)O" ?
// result inactive

// query Given "O=C1C=CCCC1" , state the outcome it received in this test.
// result inactive

// query What outcome does the record of this test show for "Cc1ccccc1Br" ?
// result inactive

// query Name the outcome recorded for "Cc1ccc(C)c(N)c1" in the assay.
// result inactive

// query Check the results log: what was the call for "O=C(O)c1cccc([N+](=O)[O-])c1" ?
// result inactive

// query Identify the outcome logged in this assay for the compound shown: "CSc1ccc(C=O)cc1"
// result inactive

// query Write down the call the test reported for this compound. Item: "Clc1ccccn1"
// result inactive

// query Each compound tested received a call. Report the one for CC(C)=C1CCC(C)CC1=O (stereo not given) .
// result inactive

// query Recorded test call requested for "CC=C(Cl)Cl"
// result inactive

// query I would be grateful if you could indicate the recorded call for "CN(C)CCCNCCCN" .
// result inactive

// query In this assay, the call recorded for "Cc1ccc2cccnc2c1" was what?
// result inactive

// query Fill in: this test's call for "CCNS(=O)(=O)c1ccc(C)cc1" is ___
// result inactive

// query Given "CC(=O)OCc1ccco1" , state the outcome it received in this test.
// result inactive

// query State the result this test recorded for "Cc1ccc(C)c(O)c1" .
// result inactive

// query What was the test verdict on "C1CCOC1" ?
// result inactive

----------
# Experiment notes: Cellular Toxicity (caspase-3) H-4-II-E (AID 663);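 also: cells exposed to compound for 16 hr before readout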
# Recorded conditions: H-4-II-E rat hepatoma, scaled: DMSO 0%, 100 µM tamoxifen 100%; at 92.2 µM (top of the series)
Inconclusive results are not listed.
Property label: caspase-3 activation (%)
Record the value in %, omitting the unit from your answer.

Here's what some known entries look like.
INSERT INTO assay_data (compound_smiles, property_label, quantitative_result) VALUES
  ('OCCO', 'caspase-3 activation', -0.0515),
  ('CC(C)(O)CCC(C)(C)O', 'caspase-3 activation', 0.513),
  ('BrC/C=C/CBr', 'caspase-3 activation', 0.954);

Just so you know, measured caspase-3 activation for "O=[N+]([O-])c1ccccc1CCO" came out at 1.12

----------
# Experiment notes: Cellular Toxicity (caspase-3) Hek293 (AID 664);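 also: cells exposed to compound for 16 h at 37 °C before readout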
# Recorded conditions: HEK293 caspase-3 activation, DMSO = 0%, 100 µM tamoxifen = 100%; at 92.2 µM (top of the series)
# Description: NIH Chemical Genomics Center [NCGC] NIH Molecular Libraries Screening Centers Network [MLSCN] National Institutes of Environmental Health Sciences [NIEHS] National Toxicology Program [NTP] We have developed a 1536-well cell-based assay for quantitative high throughput screening (qHTS) against a number of cell lines to determine in vitro caspase 3/7 of small molecules. […] 8. Detection; Luminescence; Viewlux plate reader […]
Inconclusive results are not listed. Activity calls are given as the source filed them. Calls follow the shape of the dose curve; as a rule, active = well fitted activation curve with a large enough effect; inconclusive = small, poorly fitted or top-dose-only effect; inactive = flat fitted curve, though single readings scatter.
Property label: caspase-3 activation

Consider the worked cases shown below.
INSERT INTO results (molecule, result) VALUES
  ('O=[N+]([O-])c1ccc(Cl)cc1Cl', '1.91% (inactive)'),
  ('O=C(O)c1cc(Cl)cc(Cl)c1', '1.27% (inactive)'),
  ('O=P(O)(OCc1ccccc1)OCc1ccccc1', '-1.18% (inactive)');

caspase-3 activation recorded for this molecule, "CCCCN(CCO)CCCC" , is -0.886% (inactive)

Memo: "CC(C)(O)C(=O)O" , reported caspase-3 activation: 0.779% (inactive)

For record "C=C(C)C(=O)OCCCCCCCCCC" the listed caspase-3 activation is 2.37% (inactive)

response.value for CCCOCC(C)O (stereo not given) (field: caspase-3 activation) = -1.05% (inactive)

Record "O=C(O)c1ccccc1Cl" , field caspase-3 activation: -0.14% (inactive)

----------
# Experiment notes: qHTS assay for cell viability of HEK293 cells (AID 743288); also: % is scaled to controls: 0 for no effect and ±100 for the full control effect; nearly all actives have a fitted effect of over 50% in size
# Recorded conditions: ATP luminescence (CellTiter-Glo), 18 h, hits give low values
Results filed as inconclusive are left out.
Property label: max response (%)
Give just the numeric value; % need not be written.

Example cases with answers are listed next.
INSERT INTO assay_data (compound_smiles, property_label, output_unit, quantitative_result) VALUES
  ('CC(=O)OCCC(C)C', 'max response', '%', 3.44),
  ('CC(=O)c1ccccn1', 'max response', '%', -9.54),
  ('Fc1ccccc1', 'max response', '%', 9.93),
  ('CCCCC=O', 'max response', '%', -6.95),
  ('Cc1cscn1', 'max response', '%', -3.62);

Okay, now this compound:
So, "O=Cc1cccc(Br)c1" ? Its max response was 1.54

----------
# Experiment notes: Cell Viability - LYMP1-003 - Assay at 40 hr (AID 964); also: % is scaled to controls: 0 for no effect and ±100 for the full control effect; nearly all actives have a fitted effect of over 60% in size
# Recorded conditions: LYMP1-003 lymphoblastoid viability; series mostly up to 92.2 µM
Records with an inconclusive call do not appear. The source made the active and inactive calls. The call rests on the fitted dose curve; in most records, active means well fitted cell-killing curve with a large enough effect; inconclusive means small, poorly fitted or top-dose-only effect; inactive means flat fitted curve, though single readings scatter.
Respond only with the outcome that fits, drawn from Yes (active), No (inactive)

// query Hey, what did the test say about "O=C1OC(=O)c2cc([N+](=O)[O-])ccc21" ?
// result No

// query Record request — test call for "Nc1nc2ccccc2[nH]1"
// result No

// query Status in this test for "Cc1cccc(C(=O)O)c1" ?
// result No

----------
# Tested target: Peroxisome proliferator-activated receptor alpha (Homo sapiens)
# Experiment notes: qHTS assay for small molecule agonists of the peroxisome proliferator-activated receptor alpha (PPARalpha) signaling pathway (AID 651778); also: % of control where 0% means no effect
# Recorded conditions: PathHunter PPARalpha complementation, chemiluminescence, 6 h; hits give high values
# From the text: National Center for Advancing Translational Sciences [NCATS] NIH Chemical Genomics Center [NCGC] U.S. Environmental Protection Agency [EPA] National Institutes of Environmental Health Sciences [NIEHS] National Toxicology Program [NTP] The Peroxisome proliferator-activated receptors (PPARs) are lipid-activated transcription factors of the nuclear receptor superfamily with three distinct subtypes (alpha, garmma and beta/delta). […]
Measured max response accompanies every entry in the list below.
Report as a plain number; the unit % is understood.

The following molecules have reported results that may help.
INSERT INTO results (molecule, property_label, quantitative_result) VALUES
  ('Cc1cccc(C(=O)O)c1[N+](=O)[O-]', 'max response', -1.91),
  ('Cc1ccc(Br)cc1', 'max response', -0.752),
  ('c1ccsc1', 'max response', -6.32);

Short answer on Peroxisome proliferator-activated receptor alpha (Homo sapiens) for "CC#N" , max response: -2.21

Entry "Cc1ccc2c(c1[N+](=O)[O-])C(=O)c1ccccc1C2=O" , tested on Peroxisome proliferator-activated receptor alpha (Homo sapiens), has a reported max response of -3.62

Entry CC(C)(C)OCC1CO1 (centres undefined) : max response on Peroxisome proliferator-activated receptor alpha (Homo sapiens) = -5.74

// max response (Peroxisome proliferator-activated receptor alpha (Homo sapiens)) for "CCCCCCCCC" = -0.317

Entry "CC(=C/C=C/C(C)=C/C=C/C=C(C)/C=C/C=C(C)/C=C/C(=O)O)/C=C/C(=O)O" under Peroxisome proliferator-activated receptor alpha (Homo sapiens) had max response of 2.34

Bench note, Peroxisome proliferator-activated receptor alpha (Homo sapiens): entry "CCc1ccccc1" , its max response = -3.6

----------
# Experiment notes: Cellular Toxicity (caspase-3) Mesangial (AID 660);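 also: combined caspase 3 and 7 activity read by Caspase-Glo luminescence; cells exposed to compound for 16 h before the caspase read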
# Recorded conditions: mesangial cells, normalized: DMSO 0%, 100 µM tamoxifen 100%; at 91.7 µM (top of the series)
Property label: caspase-3 activation (%)
Record the value in %, omitting the unit from your answer.

Worked examples, 4 molecules total:
INSERT INTO results (molecule, property_label, output_unit, quantitative_result) VALUES
  ('COC(=O)CC#N', 'caspase-3 activation', '%', 0.486),
  ('Cc1c(C(=O)O)cccc1[N+](=O)[O-]', 'caspase-3 activation', '%', -0.447),
  ('CC(C)c1ccccc1', 'caspase-3 activation', '%', -1.25),
  ('C=C(C)C(=O)OCC(C)C', 'caspase-3 activation', '%', 1.08);

caspase-3 activation in this record for CCC(=O)/C=C/C1C(C)=CCCC1(C)C (stereo unspecified) : 0.383

Value of measured caspase-3 activation for the entry "CCOc1cccc(N)c1" : 0.896

Briefly, caspase-3 activation measured for "Cc1ccccc1C(N)=O" : 2.19

Lab note: measured caspase-3 activation of "Cc1ccc2cccnc2c1" was 0.42
